Each recorded value in this set is attributed to patent US5891877A.

biological target: PAI-1 (Homo sapiens, UniProt P05121); test: PAI-1 inhibition in the S2251 chromogenic substrate assay (PAI functional assay); format: biochemical; conditions: 50 μm; Table 1, first part; unit assumed
Sequence (P05121 24-402): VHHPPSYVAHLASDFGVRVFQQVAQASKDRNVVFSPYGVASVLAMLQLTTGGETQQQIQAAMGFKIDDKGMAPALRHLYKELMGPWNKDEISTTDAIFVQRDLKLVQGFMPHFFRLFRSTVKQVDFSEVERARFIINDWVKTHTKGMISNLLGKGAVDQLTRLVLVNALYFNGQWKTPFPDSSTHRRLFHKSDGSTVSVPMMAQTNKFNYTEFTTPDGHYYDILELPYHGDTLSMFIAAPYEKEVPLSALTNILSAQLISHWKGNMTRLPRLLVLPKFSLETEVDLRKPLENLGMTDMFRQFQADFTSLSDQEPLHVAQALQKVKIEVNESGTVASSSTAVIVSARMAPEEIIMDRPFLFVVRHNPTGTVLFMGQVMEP
Each entry belongs to exactly one class, chosen by where its INHIBITION OF PAI-1 (degree of inhibition) falls: LOW: < 10%; MEDIUM: ≥ 10% and < 40%; HIGH: ≥ 40%

>>> assignedcategory("CC(C)(C)OC(=O)n1cc(/C=c2\\[nH]c(=O)/c(=C/c3cccs3)[nH]c2=O)c2ccccc21")
"MEDIUM"

Query: Would you mind sorting COc1cc(C=C/C=c2\[nH]c(=O)/c(=C/c3ccccc3)[nH]c2=O)ccc1OCCN(C)C into the appropriate category?
Reply: LOW

Query: Band assignment needed for O=c1[nH]/c(=C\c2c[nH]c3ccccc23)c(=O)[nH]/c1=C\c1ccccc1 please.
Reply: MEDIUM

Query: Hi, small favor: classify CC(=O)Nc1ccc(/C=c2\[nH]c(=O)/c(=C/C3CCCCC3)[nH]c2=O)cc1 by its INHIBITION OF PAI-1 (degree of inhibition) when you get a moment.
Reply: HIGH

Query: Place this compound in its band: CN(C)CCCOc1ccc(/C=c2\[nH]c(=O)/c(=C/c3ccc(Cn4ccnc4)cc3)[nH]c2=O)cc1
Reply: LOW

Query: Form: Item = COc1ccc(/C=c2\[nH]c(=O)/c(=C/c3ccc(CN)cc3)[nH]c2=O)cc1 ; Class = ?
Reply: HIGH

Query: Could you place COc1ccc(/C=c2\[nH]c(=O)/c(=C/c3ccoc3)[nH]c2=O)cc1 in its proper category? Many thanks.
Reply: HIGH

Query: # classify by INHIBITION OF PAI-1 (degree of inhibition) band: O=c1[nH]/c(=C\c2ccccc2)c(=O)[nH]/c1=C\C=C(c1ccccc1)c1ccccc1
Reply: MEDIUM

Query: Form: Item = CC(=O)Nc1ccc(/C=c2\[nH]c(=O)/c(=C/C=Cc3ccccc3)[nH]c2=O)cc1 ; Class = ?
Reply: HIGH

Query: In plain terms, what class is COc1ccc(/C=c2\[nH]c(=O)/c(=C/c3cccn3C(=O)OC(C)(C)C)[nH]c2=O)cc1 ?
Reply: HIGH

---

target: PAI-1 (Homo sapiens); assay: PAI-1 inhibition in the S2251 chromogenic substrate assay (PAI functional assay); type: biochemical; conditions: 25 μm; Table 1, first part; unit assumed
In this section we review reported INHIBITION OF PAI-1 (degree of inhibition) values for a set of molecules.
Value expressed in %; do not type the unit.

Query: Which value of INHIBITION OF PAI-1 (degree of inhibition) has been reported for CC(C)(C)OC(=O)n1cc(/C=c2\[nH]c(=O)/c(=C/c3ccccc3)[nH]c2=O)c2ccccc21 in the records?
Reply: 20

Query: Recorded INHIBITION OF PAI-1 (degree of inhibition) for CC(=O)Nc1ccc(/C=c2\[nH]c(=O)/c(=C/C=Cc3ccccc3)[nH]c2=O)cc1 , please?
Reply: 52

Query: # lookup: INHIBITION OF PAI-1 (degree of inhibition) of COc1ccc(/C=c2\[nH]c(=O)/c(=C/c3cn(S(C)(=O)=O)c4ccccc34)[nH]c2=O)cc1
Reply: 1

---

target: UniProt:P05121; experiment: PAI-1 inhibition in the S2251 chromogenic substrate assay (PAI functional assay); type: biochemical; conditions: 50 μm; Table 1, first part; unit assumed
Where a name gives a salt, the structure may show the parent alone.
Entries and their INHIBITION OF PAI-1 (degree of inhibition) values follow.
Report field: quantity (unit follows the number).

>>> observedresult("O=c1[nH]/c(=C\\c2c(Cl)cccc2Cl)c(=O)[nH]/c1=C\\c1ccoc1")
"41%"
>>> observedresult("COc1ccc(/C=c2\\[nH]c(=O)/c(=C/c3cc4ccccc4[nH]3)[nH]c2=O)cc1")
"1%"
>>> observedresult("O=c1[nH]/c(=C\\c2ccc3c(c2)OCO3)c(=O)[nH]/c1=C\\c1ccccc1")
"48%"
>>> observedresult("O=c1[nH]/c(=C\\c2c[nH]cn2)c(=O)[nH]/c1=C\\c1ccccc1")
"35%"
>>> observedresult("COc1cc(/C=c2\\[nH]c(=O)/c(=C/c3ccccc3)[nH]c2=O)ccc1OCCN(C)C [Compound 1959, hydrochloride]")
"1%"

Query compound follows.
Query: Requested field: INHIBITION OF PAI-1 (degree of inhibition). Item: CN(C)CCCOc1ccc(/C=c2\[nH]c(=O)/c(=C/c3ccc(-n4ccnc4)cc3)[nH]c2=O)cc1
Reply: 0%
